assayedSystem: T1, murine BACE1 ECD
T1 construct: analyte of the Octet assay (200 nM) and enzyme of the first short substrate assay
T1 sequence (single chain, as listed by the source limits assumed): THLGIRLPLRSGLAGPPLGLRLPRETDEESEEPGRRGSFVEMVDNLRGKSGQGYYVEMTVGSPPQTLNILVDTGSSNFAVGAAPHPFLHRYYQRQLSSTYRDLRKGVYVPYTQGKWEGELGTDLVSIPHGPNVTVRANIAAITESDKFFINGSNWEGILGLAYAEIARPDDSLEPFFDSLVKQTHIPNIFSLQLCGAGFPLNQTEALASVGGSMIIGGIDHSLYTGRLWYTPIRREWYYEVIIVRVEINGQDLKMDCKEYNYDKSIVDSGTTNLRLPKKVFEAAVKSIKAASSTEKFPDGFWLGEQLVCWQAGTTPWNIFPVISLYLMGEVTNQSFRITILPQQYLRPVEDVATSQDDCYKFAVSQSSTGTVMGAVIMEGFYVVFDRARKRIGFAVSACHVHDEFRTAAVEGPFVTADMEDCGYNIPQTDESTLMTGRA
experimentalProtocol: Octet, pH 7.5
reportedMetric: pKd
The read-out pKd is expressed as -log10 of concentration in moles per litre.

binder	pKd
6314 (antibody, V domains shown, anti-BACE1 IgG) VH: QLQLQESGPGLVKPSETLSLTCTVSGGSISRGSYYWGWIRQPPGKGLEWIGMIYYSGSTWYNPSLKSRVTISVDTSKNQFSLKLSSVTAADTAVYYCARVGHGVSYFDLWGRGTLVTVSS VL: EIVLTQSPATLSLSPGERATLSCRASQSVSSYLAWYQQKPGQAPRLLIYDASNRATGIPARFSGSGSGTDFTLTISSLEPEDFAVYYCQQSIVWPPRTFGGGTKVEIK	9.48

Read the next record carefully.
Q: Value lookup for pKd; key = 6305 (antibody, V domains shown, anti-BACE1 IgG) VH: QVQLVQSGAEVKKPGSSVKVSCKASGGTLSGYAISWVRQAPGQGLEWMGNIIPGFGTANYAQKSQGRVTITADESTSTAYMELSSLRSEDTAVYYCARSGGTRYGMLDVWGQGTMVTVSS VL: EIVLTQSPATLSVSPGERATLSCRASQSVGSNLAWYQQKPGQAPRLLIYGASTRATGIPARFSGSGSGTEFTLTISSLQSEDFAVYYCQQSFVWPPRTFGGGTKVEIK
A: 9.25
